Data provenance: PubChem BioAssay (EPA / NIEHS)

methodDescription: ATG_FoxO_CIS: Attagene CIS-FACTORIAL HepG2 Assay for human Forkhead box O (FoxO) (AID 2282943)
conditionSet: HepG2 Attagene cis-reporter, FoxO element, mRNA; actives raise or lower the signal
The source made the active and inactive calls. The calls were made as follows: active = hit-call score of the fitted dose curve at least 0.9, where 1 is the maximum; inactive = score below 0.9.
Response enum: active, inactive

[
  {
    "molecule": "O=CNC(N1CCN(C(NC=O)C(Cl)(Cl)Cl)CC1)C(Cl)(Cl)Cl (stereo not given)",
    "group": "inactive"
  }
]

Please state the recorded outcome for this molecule: `S=c1[nH]c2ccccc2[nH]1` inactive

Please state the recorded outcome for this molecule: O=P1(NCCCl)OCCCN1CCCl (stereo not given) inactive

Please state the recorded outcome for this molecule: `O=P(O)(Oc1ccccc1)Oc1ccccc1` inactive

Please state the recorded outcome for this molecule: `O=C1C=CC(=O)C=C1` inactive

Please state the recorded outcome for this molecule: `C[C@]12CC[C@H](O)C[C@H]1CC[C@@H]1[C@@H]2C[C@@H](O)[C@]2(C)[C@@H](C3=CC(=O)OC3)CC[C@]12O` active
